src = patent US12357631B2

Below, each entry is listed with its recorded pEC50.
Biological target: PB2 (Influenza A virus)
Assay: biochemical
pEC50: −log10 of the molar value.

O=C(NCC1COCCN1)OCc1ccnc(C(=O)N[C@H]2CCC[C@@H](Nc3nc(-c4c[nH]c5ncc(F)cc45)ncc3F)C2)c1 (some centres unmarked) [Compound A120] :: 4.60 to 5.30

Looking up CCOCCOc1cccc(CCNC(=O)N[C@@H]2CCC[C@H](Nc3nc(-c4c[nH]c5ncc(F)cc45)ncc3F)C2)c1 [Compound A178] , I see its pEC50 listed as < 4.00

For record Cc1ccc(C(=O)N[C@H]2CCC[C@@H](Nc3nc(-c4c[nH]c5ncc(F)cc45)ncc3F)C2)cn1 [Compound A56] the listed pEC50 is > 5.30

Measured pEC50, COc1ccc(CNC(=O)OCc2ccnc(C(=O)N[C@H]3CCC[C@@H](Nc4nc(-c5c[nH]c6ncc(F)cc56)ncc4F)C3)c2)cc1 [Compound A73] : < 4.00

Data point: Cc1ccccc1CNC(=O)OCc1ccnc(C(=O)N[C@H]2CCC[C@@H](Nc3nc(-c4c[nH]c5ncc(F)cc45)ncc3F)C2)c1 [Compound A123] ; pEC50 = < 4.00

* * *

Target: PB2 (Influenza A virus, UniProt P03428)
Sequence (P03428 whole entry, looked up): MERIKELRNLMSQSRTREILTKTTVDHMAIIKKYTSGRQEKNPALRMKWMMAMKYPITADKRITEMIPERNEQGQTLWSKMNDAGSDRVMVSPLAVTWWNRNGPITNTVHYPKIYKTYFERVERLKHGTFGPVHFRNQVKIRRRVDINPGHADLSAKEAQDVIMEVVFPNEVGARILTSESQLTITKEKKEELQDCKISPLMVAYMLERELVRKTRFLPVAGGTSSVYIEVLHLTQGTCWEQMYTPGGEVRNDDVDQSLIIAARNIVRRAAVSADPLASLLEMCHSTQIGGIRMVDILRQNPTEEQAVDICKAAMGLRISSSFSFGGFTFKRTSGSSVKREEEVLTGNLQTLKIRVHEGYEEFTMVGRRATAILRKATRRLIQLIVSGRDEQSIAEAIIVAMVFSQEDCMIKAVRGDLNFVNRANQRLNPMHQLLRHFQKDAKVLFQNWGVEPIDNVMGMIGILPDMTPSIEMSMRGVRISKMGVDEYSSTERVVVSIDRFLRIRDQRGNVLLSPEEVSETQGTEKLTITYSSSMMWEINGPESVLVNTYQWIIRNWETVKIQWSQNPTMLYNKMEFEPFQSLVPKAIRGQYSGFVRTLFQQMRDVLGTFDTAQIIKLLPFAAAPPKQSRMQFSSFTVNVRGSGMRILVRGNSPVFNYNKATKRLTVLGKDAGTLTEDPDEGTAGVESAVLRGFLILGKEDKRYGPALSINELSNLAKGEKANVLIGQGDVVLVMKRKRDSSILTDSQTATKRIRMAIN
Assay: biochemical
readout.label: EC50

O=C(O)CCOCCOCCOCC(=O)N[C@H]1CCC[C@@H](Nc2nc(-c3c[nH]c4ncc(F)cc34)ncc2F)C1 :: < 5 µM
O=C(N[C@@H]1CCC[C@H](Nc2nc(-c3c[nH]c4ncc(F)cc34)ncc2F)C1)c1ccc(-c2ccccc2)nc1 :: 5 to 25 µM
Cc1cccc(C(=O)N[C@H]2CCC[C@@H](Nc3nc(-c4c[nH]c5ncc(F)cc45)ncc3F)C2)n1 :: 5 to 25 µM
COc1ccccc1CNC(=O)OCc1ccnc(C(=O)N[C@H]2CCC[C@@H](Nc3nc(-c4c[nH]c5ncc(F)cc45)ncc3F)C2)c1 :: > 100 µM
CCOCCCCCOCCN(C)C(=O)N[C@H]1CCC[C@@H](Nc2nc(-c3c[nH]c4ncc(F)cc34)ncc2F)C1 :: > 100 µM

// EC50 value for `CCOCCOCCCCCN(CC(=O)N(C)C)C(=O)N[C@@H]1CCC[C@H](Nc2nc(-c3c[nH]c4ncc(F)cc34)ncc2F)C1` : 25 to 50 µM

Per the record, `CCOCCOCCCCCN(CC(N)=O)C(=O)N[C@@H]1CCC[C@H](Nc2nc(-c3c[nH]c4ncc(F)cc34)ncc2F)C1` has EC50 of 50 to 100 µM

Lab note: measured EC50 of CCOCCOCCCC1CCN(C(=O)N[C@H]2CCC[C@@H](Nc3nc(-c4c[nH]c5ncc(F)cc45)ncc3F)C2)C1 (stereo partly drawn) was 5 to 25 µM

Short answer for `CCOCCOCCCc1cc(C(=O)N[C@@H]2CCC[C@H](Nc3nc(-c4c[nH]c5ncc(F)cc45)ncc3F)C2)ncn1` : EC50 was > 100 µM
